- Test system: cocultures of 9L/FPGS and 9L cells
- TEST_METHOD_NOTES: Bystander effect study, cocultures of 9L/FPGS and 9L cells
- Type: cell-based, rat
- EXPERIMENTAL_SETUP: Rattus norvegicus, 4 h, coculture 20% 9L/FPGS, 4 hrs drug exposure, FIG. 4b; read-out: ED50 (the source's name)
- Protocol: For bystander effect studies, cells were plated in triplicate with varying combinations of 9L/FPGS and 9L cells such that the total number of cells was 8×10^5 per 10-cm-diameter plate. The same protocol of 4 hour cell adherence followed by 4 hour drug exposure, washes, growth in drug free medium for 3 days, and counting on a ZM coulter apparatus was then followed. […] The next day, blue colonies greater than 1 mm in diameter were counted. […]
OBSERVED_PROPERTY: pEC50
Formally, pEC50 is defined as -log10 of the concentration c, with c in mol/L.

Using the record for CCC(Cc1cnc2nc(N)nc(N)c2n1)c1ccc(C(=O)N[C@@H](CCC(=O)O)C(=O)O)cc1 (stereo partly shown) [EDX, Edatrexate] , report its pEC50.
6.87
